Could you please report measured IC95 for the items listed next?
system: HIV strain containing the Y181C mutation; assay: Spread assay: inhibition of acute HIV-1 infection of T-lymphoid cells (Y181C); format: cell-based; conditions: Human immunodeficiency virus 1, T-lymphoid, read-out: Spread (Y181C) CIC95 (10% FBS)
Where a name gives a salt, the structure may show the parent alone.
Please format your answer as a value with the unit trailing.

Prompt line: Form field: reported IC95 of N#Cc1cc(Cl)cc(Oc2c(C(F)(F)F)ccn(Cc3n[nH]c4ncccc34)c2=O)c1 [Compound 13-2]
Response line: 8 nM

Prompt line: Also check O=c1c(Oc2cc(Cl)cc(Cl)c2)c(C(F)(F)F)ccn1Cc1n[nH]c2ncccc12 [Compound 19-4]
Response line: 48 nM

Prompt line: Also check NS(=O)(=O)c1ccc(NC(=O)Cn2ccc(C(F)(F)F)c(Oc3cc(Cl)cc(Br)c3)c2=O)c(Cl)c1 [Compound 16]
Response line: 30 nM

Prompt line: Also check N#Cc1cc(Cl)cc(Oc2c(C(F)(F)F)ccn(Cc3n[nH]c4nc(N)ccc34)c2=O)c1 [Compound 17-2, trifluoroacetate]
Response line: 42 nM

Prompt line: Also check N#Cc1cc(Cl)cc(Oc2c(Cl)ccn(Cc3n[nH]c4nc(N)ccc34)c2=O)c1.O=C(O)C(F)(F)F [Compound 22, trifluoroacetate]
Response line: 63 nM

Prompt line: Also check N#Cc1cc(Cl)cc(Oc2cc(CCc3n[nH]c4ncccc34)[nH]c(=O)c2)c1 [Compound 3-9]
Response line: 360 nM

Prompt line: Also check N#Cc1cc(Cl)cc(Oc2cc(Cc3n[nH]c4ncccc34)[nH]c(=O)c2Cl)c1 [Compound 24-7]
Response line: 6.6 nM

Prompt line: Also check N#Cc1cc(Cl)cc(Oc2c(Cl)c(Cl)cn(Cc3n[nH]c4ncccc34)c2=O)c1 [Compound 23-2]
Response line: 15 nM

Prompt line: Also check N#Cc1cc(Cl)cc(Oc2cc(CCc3n[nH]c4nc(N)ccc34)[nH]c(=O)c2Cl)c1 [Compound 4-4]
Response line: 438 nM

====

target: HIV reverse transcriptase with the K103N mutation (Human immunodeficiency virus type 1 group M subtype B, UniProt P04585, K690N); construct: made in house; assay: ECL assay for inhibition of mutant HIV reverse transcriptase (K103N); assay type: biochemical, HIV-1; details: K103N mutant RT; read-out: ECL Assay (K103N) IC50
quantity measured: IC50 (nM)
// return numeric value only (unit: nM, not printed)

Prompt line: Form field: reported IC50 of N#Cc1cc(Cl)cc(Oc2nc(NCc3n[nH]c4ncccc34)c(Cl)cc2F)c1
Response line: 1.5

Prompt line: Also check Cc1ccn(Cc2n[nH]c3ncccc23)c(=O)c1Oc1cc(Cl)cc(C#N)c1
Response line: 3.7

Prompt line: Also check NS(=O)(=O)c1ccc(NC(=O)Cn2ccc(C(F)(F)F)c(Oc3cc(Cl)cc(Br)c3)c2=O)c(Cl)c1
Response line: 2.8

====

test system: wild type HIV-1; assay: Spread assay: inhibition of acute HIV-1 infection of T-lymphoid cells (WT); type: cell-based; details: Human immunodeficiency virus 1, T-lymphoid; wild type HIV-1, 10% FBS; read-out: Spread (WT) CIC95 (10% FBS)
Could you please report measured IC95 for the items listed next?
// return numeric value only (unit: nM, not printed)

Prompt line: Form field: reported IC95 of N#Cc1cc(Cl)cc(Oc2cc(Cn3c(=O)[nH]c4ccccc43)[nH]c(=O)c2Cl)c1
Response line: 638

Prompt line: Also check CCOC(=O)c1cc(Cl)cc(Oc2c(Cl)c(CCc3n[nH]c4ncccc34)[nH]c(=O)c2Cl)c1
Response line: 1220

Prompt line: Also check N#Cc1cc(Cl)cc(Oc2cc(C(O)c3n[nH]c4ncccc34)[nH]c(=O)c2Cl)c1 (stereo not shown)
Response line: 28

Prompt line: Also check N#Cc1cc(Cl)cc(Oc2nc(NCc3n[nH]c4nc(N)ccc34)c(Cl)cc2F)c1
Response line: 3

Prompt line: Also check N#Cc1cc(Cl)cc(Oc2c(F)c(NCc3n[nH]c4ncccc34)nc(F)c2Cl)c1
Response line: 28

Prompt line: Also check N#Cc1cc(Cl)cc(Oc2cc(CCc3n[nH]c4ncccc34)[nH]c(=O)c2Cl)c1
Response line: 7

Prompt line: Also check N#Cc1cc(Cl)cc(Oc2cc(CCc3n[nH]c4nc(N)ccc34)[nH]c(=O)c2Cl)c1
Response line: 39

Prompt line: Also check O=c1c(Oc2cc(Cl)cc(Cl)c2)c(C(F)(F)F)ccn1Cc1n[nH]c2ncccc12
Response line: 9

Prompt line: Also check N#Cc1cc(Cl)cc(Oc2cc(NCc3n[nH]c4ncccc34)[nH]c(=O)c2Cl)c1
Response line: 34

Prompt line: Also check Cc1nc(OCc2n[nH]c3ncccc23)c(Cl)c(Oc2cc(Cl)cc(C#N)c2)c1Cl
Response line: 100

Prompt line: Also check N#Cc1cc(Cl)cc(Oc2cc(Cc3n[nH]c4ncccc34)[nH]c(=O)c2Cl)c1
Response line: 2.4

Prompt line: Also check N#Cc1cc(Cl)cc(Oc2nc(NCc3n[nH]c4ncccc34)c(Cl)cc2F)c1
Response line: 3

Prompt line: Also check N#Cc1cc(Cl)cc(Oc2c(Cl)ccn(Cc3n[nH]c4nc(N)ccc34)c2=O)c1.O=C(O)C(F)(F)F [Compound 22, trifluoroacetate]
Response line: 2

Prompt line: Also check N#Cc1cc(Cl)cc(Oc2c(Cl)ccn(Cc3n[nH]c4ncccc34)c2=O)c1
Response line: 3

Prompt line: Also check N#Cc1cc(C#N)cc(Oc2c(C(F)(F)F)ccn(Cc3n[nH]c4ncccc34)c2=O)c1
Response line: 7

Prompt line: Also check Cl.Nc1ccc2c(Cn3ccc(C(F)(F)F)c(Oc4cc(Cl)cc(Cl)c4)c3=O)n[nH]c2n1
Response line: 20

Entry source: patent US8404856B2
